Average weight change values for the compounds below.
Tested on: Mus musculus
PROTOCOL_TEXT: Percent change in the weight after administering a dose of 50 mg/kg to mice bearing L1210 leukemia
Type: functional
ASSAY_METRIC: Average weight change (%)

chemical_string=Cc1ccc(S(=O)(=O)NN(C)S(=O)(=O)c2ccc(C)cc2)cc1 assay_value=3.7
chemical_string=CN(NC(=O)c1ccccc1)C(=O)c1ccccc1 assay_value=2.5
chemical_string=COc1ccc(S(=O)(=O)NN(C)S(=O)(=O)c2ccc(OC)cc2)cc1 assay_value=1.9
chemical_string=CN(NS(=O)(=O)c1ccc(Cl)cc1)S(=O)(=O)c1ccc(Cl)cc1 assay_value=4
chemical_string=CN(NS(=O)(=O)c1ccccc1)S(=O)(=O)c1ccccc1 assay_value=-4.8
chemical_string=CN(NS(=O)(=O)c1ccc2ccccc2c1)S(=O)(=O)c1ccc2ccccc2c1 assay_value=3
chemical_string=O=S(=O)(NNS(=O)(=O)c1ccccc1)c1ccccc1 assay_value=-0.3
